# Protocol: Tissue distribution
# Format: in vivo
# Conditions used: male, albino Wistar, rat, lungs, intravenous, 15 mg/kg; rats, 8 h after administration; read-out: Concentration in Lungs
Observation type: concentration at 8 h (ng/mL)

{"Compound": "CNC(=O)c1ccc(N2C(=S)N(c3ccc(C#N)c(C(F)(F)F)c3)C(=O)C2(C)C)cc1F [ENZ, Enzalutamide]", "Observation type": "concentration at 8 h", "Result number": 0.5}

---

# Protocol: Pharmacokinetics after intravenous administration
# Assay type: in vivo, male Albino Wistar rats
# Conditions used: male, Albino Wistar, rat, plasma, iv; rats, 15 mg/kg intravenously
Observation type: Vd (L)

{"Compound": "CNC(=O)c1ccc(N2C(=S)N(c3ccc(C#N)c(C(F)(F)F)c3)C(=O)C2(C)C)cc1F [ENZ, Enzalutamide]", "Result number": 1.4}
